# assay overview: in vitro
# measurement context: human, liver microsomes
# Description: Half life in human liver microsome at 2 mg/mL
Catalogue of molecules with associated half-life

molecule	value unit	half-life
COc1ccc2c(c1)C[C@@H](C(=O)Nc1ccc(-c3cn[nH]c3)cc1OCCN(C)C)NC2	h	1.68
COc1ccc2c(c1)C[C@H](C(=O)Nc1ccc(-c3cn[nH]c3)cc1OCCN1CCCC1)NC2	h	1.05
COc1ccc2c(c1)C[C@H](C(=O)Nc1ccc(-c3c[nH]nc3C)cc1SCCN(C)C)NC2	h	0.183
CN(C)CCOc1cc(-c2cn[nH]c2)c(F)cc1NC(=O)[C@H]1Cc2ccccc2CN1CC1CC1	h	0.05
CN(C)CCOc1cc(-c2cn[nH]c2)c(F)cc1NC(=O)[C@H]1Cc2ccccc2CN1	h	0.75
N[C@H](Cc1cccc(F)c1)C(=O)Nc1ccc(-c2cn[nH]c2)cc1	h	1.12
CCN1Cc2ccccc2C[C@@H]1C(=O)Nc1cc(F)c(-c2cn[nH]c2)cc1OCCN(C)C	h	0.0167
CN(C)CCOc1cc(-c2cn[nH]c2)ccc1NC(=O)[C@H]1Cc2ccccc2CN1	h	1.63
COc1ccc2c(c1)C[C@H](C(=O)Nc1cc(F)c(-c3cn[nH]c3)cc1OCCN(C)C)NC2	h	0.85
NC(Cc1ccc(Cl)cc1)C(=O)Nc1ccc(-c2cn[nH]c2)cc1 (centres undefined)	h	1.12
COc1ccc2c(c1)C[C@H](C(=O)Nc1c(F)cc(-c3cn[nH]c3)cc1OCCN(C)C)NC2	h	1.87
COc1ccc2c(c1)C[C@H](C(=O)Nc1ccc(-c3cn[nH]c3)c(F)c1OCCN(C)C)NC2	h	1.2
CN(C)CCOc1cc(-c2cn[nH]c2)ccc1NC(=O)[C@@H]1Cc2ccccc2CN1	h	1.63
COc1ccc2c(c1)C[C@H](C(=O)Nc1ccc(-c3cn[nH]c3)cc1OCC1CCN(C)CC1)NC2	h	1.02

These measurements were taken from ChEMBL document CHEMBL1212924.
